Experiment Summary: Nrf2 qHTS screen for inhibitors; note: nearly all actives have a fitted effect of over 60% in size
Assay Context: A549 ARE-Fluc reporter, luciferase luminescence, 18-24 h; series mostly up to 46 µM
Out of some 360,000 compounds screened, about 7,500 (2.1%) were called active. Not shown: some 20% with an inconclusive outcome. Calls come from the whole dose curve; as a rule, active = well fitted inhibition curve with a large enough effect; inconclusive = small, poorly fitted or top-dose-only effect, or effect the other way; inactive = flat fitted curve, though single readings scatter. For the sample, actives were picked, then their nearest neighbours and some compounds at random.
Lab note: assign the record to one of TRUE (active), FALSE (inactive)

In this assay, the call recorded for CCOc1cc(C2C(C(=O)OC)=C(C)NC3=C2C(=O)c2ccccc23)ccc1O (centres undefined) was what?
FALSE

In this assay, the call recorded for O=C(O)CN1CCN(C(c2ccccc2)c2ccccc2)CC1 was what?
FALSE

In this assay, the call recorded for CCOc1ccc(N(CC(=O)Nc2ccccc2F)S(=O)(=O)c2c(C)[nH]c(=O)[nH]c2=O)cc1 was what?
FALSE

In this assay, the call recorded for Cc1cccc(NC(=S)N2CCC(C(=O)c3ccc(F)cc3)CC2)c1 was what?
FALSE

In this assay, the call recorded for O=C(NCc1ccccc1CN1CCCC1)C1CCN(S(=O)(=O)c2ccc(Cl)cc2)CC1 was what?
FALSE

In this assay, the call recorded for O=C1CC(c2nnc(Cc3ccc(Cl)cc3)o2)CN1c1ccccc1 (centres undefined) was what?
FALSE

In this assay, the call recorded for CC1(C)CC(N2CCN(C(c3ccccc3)c3ccccc3)CC2)=CC(=[N+]2CCCCC2)C1 was what?
TRUE

In this assay, the call recorded for CCN(CC)CCN(C(=O)c1ccc(S(=O)(=O)N2CCOCC2)cc1)c1nc2cc3c(cc2s1)OCCO3 was what?
FALSE

In this assay, the call recorded for CN(C)CCCN(C(=O)c1ccc(S(=O)(=O)N2CCCCCC2)cc1)c1nc2ccc(Br)cc2s1 was what?
TRUE

In this assay, the call recorded for CCCN(c1ccc(C(C)C)cc1)S(=O)(=O)c1c(C)[nH]c(=O)[nH]c1=O was what?
TRUE

In this assay, the call recorded for CCN(CCCNC(=O)c1cc(Nc2ccc(OC)cc2)nc2ccccc12)c1cccc(C)c1 was what?
FALSE

In this assay, the call recorded for CN(C)CCCN(C(=O)c1ccc(S(=O)(=O)N2CCCCCC2)cc1)c1nc2cc3c(cc2s1)OCCO3 was what?
FALSE

In this assay, the call recorded for Cc1ccccc1NC(=O)Cn1c(=O)n(CCc2ccccc2)c(=O)c2ccccc21 was what?
FALSE

In this assay, the call recorded for CCC(=O)N1CCc2cc(S(=O)(=O)NC(Cc3ccccc3)C(=O)NCc3ccccc3)ccc21 (centres undefined) was what?
FALSE

In this assay, the call recorded for COC(=O)[C@@]1(C)[C@H]2C(=O)N(Cc3ccccc3)C(=O)[C@H]2[C@H]2CN=C(SCC3CC3)N21 was what?
FALSE

In this assay, the call recorded for CC(=O)c1ccc(NC(=O)CSc2nc3ccccc3c(=O)n2CCCN2CCOCC2)cc1 was what?
FALSE

In this assay, the call recorded for COc1cc(OC)cc(C(=O)Nc2c(C(=O)Nc3ccc(F)cc3)oc3ccccc23)c1 was what?
FALSE

In this assay, the call recorded for COc1ccc(CN2C(=O)C(NC(=O)c3cccc(C)c3)(C(F)(F)F)N=C2c2ccccc2)cc1 (centres undefined) was what?
FALSE

In this assay, the call recorded for Cc1cc(N2CCCC2)ccc1NC(=O)COc1ccc(Cl)cc1 was what?
FALSE
